- Test system: NCI-H292 lung cancer cells
- Experimental Details: FDA drug screening, complete media vs cholesterol-free media without statin (TABLE 1)
- Assay type: cell-based, human
- Condition Context: Complete minus Cholesterol-free; greater than 0 enhanced anti-cancer activity, about 0 neutral, below 0 antagonist
Where a name gives a salt, the structure may show the parent alone.
Recorded Endpoint: Difference

Compound	Val
O=c1[nH]cc(F)c(=O)[nH]1	−0.13
COc1c(N2CCNC(C)C2)c(F)cc2c(=O)c(C(=O)O)cn(C3CC3)c12 (stereo not drawn) [Gatifloxacin (hydrochloride)]	−0.09
CC1(C)S[C@@H]2[C@H](NC(=O)[C@H](NC(=O)N3CCNC3=O)c3ccccc3)C(=O)N2[C@H]1C(=O)O [Azlocillin (sodium salt)]	−0.16
CC/C=C\C/C=C\C/C=C\C/C=C\C/C=C\CCCC(=O)O	−0.10
COC(=O)/C=C/C(=O)OC [Dimethyl fumarate]	−0.13
CC(C)(C)c1nc(-c2cccc(NS(=O)(=O)c3c(F)cccc3F)c2F)c(-c2ccnc(N)n2)s1	−0.18

---

Items are presented alongside their recorded Complete Media.
- Tested on: NCI-H292 lung cancer cells
- Experimental Details: FDA drug screening, complete media vs cholesterol-free media with simvastatin (TABLE 2)
- Assay type: cell-based, human
- Condition Context: NCI-H292 cells, FDA library drug in complete media

Molecule	Subject Of Test	Complete Media
Cc1cc(C)cc(OCC2CNC(=O)O2)c1 (stereo not drawn)	NCI-H292 lung cancer cells	1.014
COc1cc(Nc2ncc(F)c(Nc3ccc4c(n3)N(COP(=O)(O)O)C(=O)C(C)(C)O4)n2)cc(OC)c1OC	NCI-H292 lung cancer cells	1.042
Nc1nnc(-c2cccc(Cl)c2Cl)c(N)n1	NCI-H292 lung cancer cells	1.093
CCc1cc(/C(C)=N/OCc2ccc(C3CCCCC3)c(C(F)(F)F)c2)ccc1CN1CC(C(=O)O)C1	NCI-H292 lung cancer cells	0.7701
CO[C@H]1/C=C/O[C@@]2(C)Oc3c(C)c(O)c4c(O)c(c(/C=N/N5CCN(C)CC5)c(O)c4c3C2=O)NC(=O)/C(C)=C\C=C\[C@H](C)[C@H](O)[C@@H](C)[C@@H](O)[C@@H](C)[C@H](OC(C)=O)[C@@H]1C	NCI-H292 lung cancer cells	0.8641
CC1=C(/C=C/C(C)=C/C=C/C(C)=C/C=C/C=C(C)/C=C/C=C(C)/C=C/C2=C(C)CCCC2(C)C)C(C)(C)CCC1	NCI-H292 lung cancer cells	0.6081

---

- Test system: NCI-H292 lung cancer cells
- Experimental Details: FDA drug screening, complete media vs cholesterol-free media without statin (TABLE 1)
- Format: cell-based, human
- Condition Context: NCI-H292 cells, complete media
Structures can show the parent of a compound that is named as a salt.
Quick rule for you: Complete at 1 or higher means 1.0, lower means 0.0.

Compound	Label Value
Cl.Cl.OCCOCCN1CCN(C(c2ccccc2)c2ccccc2)CC1 [Decloxizine (dihydrochloride)]	0.0
CNC[C@H](O)[C@@H](O)[C@H](O)[C@H](O)CO [Meglumine]	0.0
C[C@H](Cc1cc2c(c(C(N)=O)c1)N(CCCO)CC2)NCCOc1ccccc1OCC(F)(F)F [Silodosin]	0.0
COc1cccc(N2CCN(C3=Nc4c(F)cccc4[C@H](CC(=O)O)N3c3cc(C(F)(F)F)ccc3OC)CC2)c1 [Letermovir]	1.0
O=c1[nH]c2ccccc2n1CCN1CCN(c2cccc(C(F)(F)F)c2)CC1 [Flibanserin]	0.0
Cc1cn(-c2cc(NC(=O)c3ccc(C)c(Nc4nccc(-c5cccnc5)n4)c3)cc(C(F)(F)F)c2)cn1 [Nilotinib]	1.0
CO/N=C(\C(=O)N[C@@H]1C(=O)N2C(C(=O)O)=C(COC(C)=O)CS[C@H]12)c1csc(N)n1 [Cefotaxime (sodium salt)]	0.0

---

- System: NCI-H292 lung cancer cells
- Experimental Details: FDA drug screening, complete media vs cholesterol-free media without statin (TABLE 1)
- Format: cell-based, human
- Condition Context: Complete minus Cholesterol-free; >0 enhanced anti-cancer activity, about 0 neutral, <0 antagonist
Where a name gives a salt, the structure may show the parent alone.
Quick rule for you: Difference at -0.06 or higher means Fulfilled, lower means Not fulfilled.

Compound	Label Value
O=C(O)CCC(=O)Nc1ccc(S(=O)(=O)Nc2nccs2)cc1	Fulfilled
COc1ccc(CCO[C@@H]2CCCC[C@H]2N2CC[C@@H](O)C2)cc1OC [Vernakalant (Hydrochloride)]	Not fulfilled
CN1C(=O)COc2c(C(=O)NC3CN4CCC3CC4)cc(Cl)cc21 (stereo not shown) [Azasetron (hydrochloride)]	Not fulfilled
Cc1ccc(C(=O)C(C)CN2CCCCC2)cc1 (stereo not shown) [Tolperisone (hydrochloride)]	Fulfilled
C[C@]12CCC(=O)C=C1CC[C@@H]1[C@@H]2C(=O)C[C@@]2(C)[C@H]1CC[C@]2(O)C(=O)CO	Not fulfilled

---

- Tested on: NCI-H292 lung cancer cells
- Experimental Details: FDA drug screening, complete media vs cholesterol-free media without statin (TABLE 1)
- Format: cell-based, human
- Condition Context: NCI-H292 cells, complete media
Structures can show the parent of a compound that is named as a salt.
Quick rule for you: Complete at 0.9 or higher means rule met, lower means rule not met.

Compound	Label Value
Nc1ncn([C@H]2C[C@H](O)[C@@H](CO)O2)c(=O)n1	rule not met
CC(C)[C@H](N)C(=O)OCCOCn1cnc2c(=O)[nH]c(N)nc21 [Valacyclovir (hydrochloride)]	rule not met
O=C(O)c1cc(/N=N/c2ccc(O)c(C(=O)O)c2)ccc1O [Olsalazine (Disodium)]	rule met
O=C(O)c1ccc(-n2nc(-c3ccccc3O)nc2-c2ccccc2O)cc1	rule met
CC1=C[C@]23C(=O)[C@@H](C=C(CO)[C@@H](O)[C@]2(O)[C@H]1O)[C@H]1[C@@H](C[C@H]3C)C1(C)C	rule not met
Cc1onc(-c2c(F)cccc2Cl)c1C(=O)N[C@@H]1C(=O)N2[C@@H]1SC(C)(C)[C@@H]2C(=O)O [Flucloxacillin sodium]	rule met
CC(=O)O[C@H]1Cc2ccccc2N(C(N)=O)c2ccccc21 [Eslicarbazepine acetate]	rule not met
Cn1cnc([N+](=O)[O-])c1Sc1ncnc2nc[nH]c12	rule not met
CN1[C@@H]2CC[C@H]1C[C@@H](OC(=O)c1c[nH]c3ccccc13)C2 [Tropisetron (Hydrochloride)]	rule not met
N[C@@H](Cc1cc(I)c(Oc2cc(I)c(O)c(I)c2)c(I)c1)C(=O)O	rule not met
CC(C)(C)NCC(O)COc1ccccc1C1CCCC1 (single isomer, unassigned; (+)) [(+)-Penbutolol]	rule met

---

- Tested on: NCI-H292 lung cancer cells
- Experimental Details: FDA drug screening, complete media vs cholesterol-free media without statin (TABLE 1)
- Assay type: cell-based, human
- Condition Context: NCI-H292 cells, complete media, FDA drug library screen
Counter-ions that a name gives are not always drawn.

Compound	Complete
Cc1ccc(S(=O)(=O)NC(=O)NN2CC3CCCC3C2)cc1 (stereo not drawn) [Gliclazide]	1.122
C#Cc1cccc(Nc2ncnc3cc4c(cc23)OCCOCCOCCO4)c1 [Icotinib]	0.3774
NC(=O)N/N=C/c1ccc([N+](=O)[O-])o1	1.416
CC(C)N(CC[C@H](c1ccccc1)c1cc(CO)ccc1O)C(C)C	1.3
NCCc1c[nH]cn1	0.9813
O=C(O)Cc1ccc(-c2ccccc2)cc1	1.335
COc1cc2ncnc(Nc3ccc(F)c(Cl)c3)c2cc1OCCCN1CCOCC1 [Gefitinib (hydrochloride)]	0.8718
CC1CCc2c(N3CCC(O)CC3)c(F)cc3c(=O)c(C(=O)O)cn1c23 (stereo not drawn)	0.9558
O.O.O.O.O=P([O-])(O)C(Cl)(Cl)P(=O)([O-])O.[Na+].[Na+] [Clodronate (disodium tetrahydrate)]	1.034
CCOC(=O)C1=C(C)NC(C)=C(C(=O)OCC)C1c1ccccc1/C=C/C(=O)OC(C)(C)C	1.013
Nc1ccc(S(=O)(=O)Nc2ccccn2)cc1	0.7909
COc1cc(Nc2ncc(F)c(Nc3ccc4c(n3)N(COP(=O)(O)O)C(=O)C(C)(C)O4)n2)cc(OC)c1OC [Fostamatinib (disodium hexahydrate)]	0.5466

---

Items are presented alongside their recorded Cholesterol-free media + simvastatin (0.04 μM).
- System: NCI-H292 lung cancer cells
- Experimental Details: FDA drug screening, complete media vs cholesterol-free media with simvastatin (TABLE 2)
- Type: cell-based, human
- Condition Context: NCI-H292 cells, FDA library drug in cholesterol-free media with simvastatin 0.04 μM
Where a name gives a salt, the structure may show the parent alone.
Recorded Endpoint: Cholesterol-free media + simvastatin (0.04 μM)

Compound	Val
NCC(=O)O	1.249
Cc1cccc(C(C)c2cnc[nH]2)c1C (centres unmarked)	1.094
CCN(CC)CCOC(=O)C(c1ccccc1)c1ccccc1 [Adiphenine (hydrochloride)]	1.255
O=c1ccn([C@@H]2O[C@H](CO)[C@@H](O)[C@H]2O)c(=O)[nH]1	1.294
CCc1ccc(CCOc2ccc(CC3SC(=O)NC3=O)cc2)nc1 (centres unmarked)	2.095
CN(C)c1cc(NC(=O)CNC(C)(C)C)c(O)c2c1C[C@H]1C[C@H]3[C@H](N(C)C)C(O)=C(C(N)=O)C(=O)[C@@]3(O)C(O)=C1C2=O	1.179
CCCCCOC(=O)Nc1nc(=O)n([C@@H]2O[C@H](C)[C@@H](O)[C@H]2O)cc1F	1.236
CCOC(=O)[C@H](CCc1ccccc1)N[C@@H](C)C(=O)N1C(=O)N(C)C[C@H]1C(=O)O [Imidapril (hydrochloride)]	1.282
Nc1[nH]c(=O)ncc1F	1.754
CNC(=O)c1ccc(N2C(=S)N(c3ccc(C#N)c(C(F)(F)F)c3)C(=O)C2(C)C)cc1F [Enzalutamide]	0.7893
CC(C)n1nccc1-c1ncccc1COc1cccc(O)c1C=O	1.853
Cc1ccc([C@@H]2O[C@H](CO)[C@@H](O)[C@H](O)[C@H]2O)cc1Cc1ccc(-c2ccc(F)cc2)s1.O [Canagliflozin (hemihydrate)]	1.34
CCC(=O)O[C@H]1[C@H](O[C@@H]2[C@@H](C)[C@H](O[C@H]3C[C@@](C)(OC)[C@@H](O)[C@H](C)O3)[C@@H](C)C(=O)O[C@H](CC)[C@@](C)(O)[C@H](O)[C@@H](C)C(=O)[C@H](C)C[C@@]2(C)O)O[C@H](C)C[C@@H]1N(C)C [Erythromycin estolate]	1.347
CNCCCC1c2ccccc2C=Cc2ccccc21 [Protriptyline (hydrochloride)]	1.142
CC[N+](C)(CC)CCOC(=O)C(O)(c1ccccc1)c1ccccc1 [Methylbenactyzium Bromide]	1.651
CO[C@@]1(NC(=O)C(C(=O)O)c2ccc(O)cc2)C(=O)N2C(C(=O)O)=C(CSc3nnnn3C)CO[C@@H]21 (some centres unmarked) [Moxalactam (sodium salt)]	1.994
CC(C(=O)O)c1ccc2c(c1)Cc1cccnc1O2 (centres unmarked)	1.474
